# target.or.system: T1, recombinant human IL-19 (Homo sapiens, UniProt Q9UHD0)
# T1 sequence (Q9UHD0 25-177): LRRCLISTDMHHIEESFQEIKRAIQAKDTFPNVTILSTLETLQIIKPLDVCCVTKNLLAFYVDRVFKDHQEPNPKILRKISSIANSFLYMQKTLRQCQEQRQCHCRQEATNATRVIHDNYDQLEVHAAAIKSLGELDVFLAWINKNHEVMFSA
# protocol.summary: Binning by cross-competition binding assay (Octet Red96)
readout.name: Binning Group

molecule: R_3: rabbit-derived IL-19 antibody; LCVR SEQ ID NO: 50, HCVR SEQ ID NO: 54 (antibody, V domains shown) VH: QCQSLEESGGGLVEPEGSLTLTCKASGFSFSSSYWICWVRQAPGKGLEWIACTDTFSGDTYYASWAKGRFTISKTSSTTVTLRMTSLTDADTATYFCARDIFGTAVHISLWGPGTLVTVSS VL: ADVVMTQTPSSVEAAVGGTVTIKCQASQSIGSSLAWYQQKPGQRPKLLIYGASTLASGVPSRFKGSGSGTEFTLTISDLECADAATYYCQCHYHGSSYWDNSFGGGTEVVVK
readout.name: Binning Group
val: 3
